Item-by-item account of kon
# systemTested: Feline_OSMR_hlgG1_Fc (feline)
# Sequence (chain, as listed by the source limits assumed, form in doubt): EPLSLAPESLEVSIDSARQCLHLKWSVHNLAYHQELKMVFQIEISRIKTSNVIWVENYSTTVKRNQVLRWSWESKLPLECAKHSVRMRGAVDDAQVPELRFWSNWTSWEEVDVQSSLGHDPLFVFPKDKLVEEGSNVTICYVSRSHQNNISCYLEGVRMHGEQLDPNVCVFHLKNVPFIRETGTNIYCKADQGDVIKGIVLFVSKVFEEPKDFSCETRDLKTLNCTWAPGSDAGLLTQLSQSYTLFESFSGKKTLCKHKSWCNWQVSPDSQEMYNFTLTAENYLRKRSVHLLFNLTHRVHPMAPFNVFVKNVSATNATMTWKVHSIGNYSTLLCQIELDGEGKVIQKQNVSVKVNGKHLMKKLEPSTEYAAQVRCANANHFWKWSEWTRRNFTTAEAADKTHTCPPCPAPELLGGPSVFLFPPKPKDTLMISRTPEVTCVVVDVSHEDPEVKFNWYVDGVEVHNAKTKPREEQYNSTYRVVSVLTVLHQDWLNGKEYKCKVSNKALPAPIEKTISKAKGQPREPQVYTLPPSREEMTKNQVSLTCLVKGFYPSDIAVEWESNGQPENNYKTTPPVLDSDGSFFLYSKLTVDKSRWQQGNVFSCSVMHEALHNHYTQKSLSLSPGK
# assayMethodText: SPR Biacore

binder	kon
Mu_10F07_VL (SEQ ID NO: 41)_T53A (antibody, V domains shown) VH: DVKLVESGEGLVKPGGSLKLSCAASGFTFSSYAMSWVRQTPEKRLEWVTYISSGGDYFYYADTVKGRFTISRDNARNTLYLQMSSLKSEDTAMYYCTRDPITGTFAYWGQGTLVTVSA VL: DIQMTQTTSSLSASLGDRVTISCRASQDITNYLNWYQQKPDGTVKLLIYYTSALHSGVPSRFSGSGSGTDFSLTISNLEQEDIATYFCQQGHMLPWTFGGGTKLEIKR	255000 M⁻¹ s⁻¹
Mu_09E09_VL (SEQ ID NO: 37)_L94A (antibody, V domains shown) VH: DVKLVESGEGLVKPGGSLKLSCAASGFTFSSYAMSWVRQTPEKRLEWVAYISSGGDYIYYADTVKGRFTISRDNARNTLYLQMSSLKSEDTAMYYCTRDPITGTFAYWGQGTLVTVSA VL: DLQMTQTTSSLSASLGDRVTISCRASQDINNYLNWYQQKPDGTVKLLIYYTSTLHSGVPSRFSGSGSGTDYSLTISNLEQEDIATYFCQQGNTAPWTFGGGTKLEIKR	2.68e+06 M⁻¹ s⁻¹
Mu_09E09_VH (SEQ ID NO: 35)_F105A (antibody, V domains shown) VH: DVKLVESGEGLVKPGGSLKLSCAASGFTFSSYAMSWVRQTPEKRLEWVAYISSGGDYIYYADTVKGRFTISRDNARNTLYLQMSSLKSEDTAMYYCTRDPITGTAAYWGQGTLVTVSA VL: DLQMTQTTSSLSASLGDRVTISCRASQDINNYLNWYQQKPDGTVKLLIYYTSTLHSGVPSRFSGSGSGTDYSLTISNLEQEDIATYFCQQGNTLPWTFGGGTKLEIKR	772000 M⁻¹ s⁻¹
